- System: ES-2 IGF2BP1-KO cells re-expressing the wild type GFP-IGF2BP1
- measurementNotes: Cell viability (CellTiter Glo), cells re-expressing wild type IGF2BP1
- Format: cell-based
- particulars: cell viability 72h, CellTiter Glo
propertyLabel: IC50 (µM)
Please give a number only; it is taken to be in µM.

Let me know recorded IC50 for CCNC(=O)/C=C/C(=O)c1ccccc1 [J5, (E)-N-ethyl-4-oxo-4-phenylbut-2-enamide] , thanks. 0.97

---

- Tested on: ES-2 IGF2BP1-KO cells re-expressing GFP-IGF2BP1C253/336A
- measurementNotes: 2D growth / proliferation (cell confluence, IncuCyte S3), cells re-expressing C253/336A mutant
- Assay type: cell-based
- particulars: Homo sapiens; ES-2 cells expressing the C253/336A mutant; confluence at 72h
propertyLabel: IC50 (nM)
Please give a number only; it is taken to be in nM.

Let me know recorded IC50 for `O=C(/C=C/C(=O)c1ccccc1)NCCNc1ccc([N+](=O)[O-])c2nonc12` , thanks. 2200
